assay: primary screen for activators of insulin secretion dependent on glucose, INS-1E cells, GLuc reporter luminescence (AID 743287); settings: INS-1E GLuc reporter insulin secretion, 2-3 h, at 16.6 µM, stronger effect = higher value;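 also: 0% = median of neutral control wells and 100% = median of IBMX positive control wells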
About 2,300 (0.62%) of roughly 370,000 compounds were called active. For the sample, actives were picked, then their nearest neighbours and some compounds at random.
readout-name: activation

1) CCCC(=O)Nc1ccc2c(c1)C(=O)N(C)[C@@H]1CC[C@H](CC(=O)NCCOC)O[C@H]1CO2 :: -1.04% (inactive)
2) C[C@H](CO)N1C[C@H](C)[C@@H](CN(C)Cc2ccccc2)Oc2c(NC(=O)CCCCCC(=O)Nc3ccccc3N)cccc2C1=O :: -7.28% (inactive)
3) CC(C)NC(=O)N(C)C[C@H]1Oc2ccc(N(C)C)cc2CC(=O)N(C)C[C@@H]1C :: 0.073% (inactive)
4) Cc1ccc(NC(=O)C2CCN(S(=O)(=O)c3ccc4c(c3)NC(=O)CO4)CC2)cc1C :: -23% (inactive)

----------
test: primary screen for activators of insulin secretion dependent on glucose, INS-1E cells, GLuc reporter luminescence (AID 743287); conditions: INS-1E GLuc reporter insulin secretion, 2-3 h, at 16.6 µM;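 also: 0% = median of neutral control wells and 100% = median of IBMX positive control wells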
The whole screen tested about 370,000 compounds, of which about 2,300 (0.62%) were called active.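 Rule for the calls: active = lowest replicate activation of at least 40%, so every replicate reaches that level; inactive = the rest.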 This is one part of a sample in which actives are shown more often than they occur.
Classes used: 1.0 for active, 0.0 for inactive

1) CN1C(=O)c2cc(NS(C)(=O)=O)ccc2OC[C@H]2O[C@H](CC(=O)NCc3ccccc3)CC[C@H]21 :: 0.0
2) O=C1c2oc3ccccc3c(=O)c2C(c2cccc(O)c2)N1c1ccccn1 (stereo not given) :: 0.0
3) CCSc1ccccc1C(=O)Nc1ccc2c(c1)OCO2 :: 0.0
4) CCC1OC(C2CC2)CC2=C1C(=O)OC(C)(C)O2 (stereo not given) :: 1.0
5) O=C(Nc1ccc(S(=O)(=O)Nc2ncccn2)cc1)c1cncc(Br)c1 :: 0.0
6) O=c1c2ccccc2c(-c2ccccc2)nn1-c1ccccn1 :: 1.0
7) C[C@H](CO)N1C[C@H](C)[C@@H](CN(C)C)Oc2ncc(-c3cccc(F)c3)cc2C1=O :: 0.0
8) O=C(/C=C/c1ccc(Cl)cc1)Nc1ccc(Br)cn1 :: 0.0
9) O=C(Nc1ccccc1F)N1CC(=O)N2[C@H](CO)[C@H](c3ccc(C#CC4CC4)cc3)[C@@H]2C1 :: 0.0
10) CC1(C)OC(=O)C2=C(C[C@@H](C3CC3)O[C@H]2CCc2cccc(Cl)c2)O1 :: 0.0
